Reference for the values: ChEMBL document CHEMBL1151728

Biological target: Acetylcholinesterase (Electrophorus electricus)
Sequence (O42275 whole entry): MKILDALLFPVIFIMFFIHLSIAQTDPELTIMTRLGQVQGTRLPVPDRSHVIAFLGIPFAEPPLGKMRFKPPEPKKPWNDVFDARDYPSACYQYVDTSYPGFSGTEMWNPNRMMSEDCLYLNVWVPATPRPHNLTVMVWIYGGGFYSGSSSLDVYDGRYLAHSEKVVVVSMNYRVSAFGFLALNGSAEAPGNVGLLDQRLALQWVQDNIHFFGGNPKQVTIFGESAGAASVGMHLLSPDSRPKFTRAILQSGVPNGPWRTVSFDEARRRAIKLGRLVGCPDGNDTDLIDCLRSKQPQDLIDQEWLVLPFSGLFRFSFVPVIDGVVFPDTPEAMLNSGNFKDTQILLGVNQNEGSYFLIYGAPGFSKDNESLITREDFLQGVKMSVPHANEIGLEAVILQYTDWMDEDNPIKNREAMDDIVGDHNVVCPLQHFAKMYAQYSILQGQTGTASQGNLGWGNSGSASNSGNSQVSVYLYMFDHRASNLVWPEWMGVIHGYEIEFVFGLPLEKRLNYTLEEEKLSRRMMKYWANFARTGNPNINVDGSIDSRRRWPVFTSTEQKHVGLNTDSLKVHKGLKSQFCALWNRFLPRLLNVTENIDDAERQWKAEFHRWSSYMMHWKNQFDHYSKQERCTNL
Below, each of the compounds is paired with its reported IC50 value.

Sample answers from the record:
| structure | assayedTarget | experimentalValue |
| --- | --- | --- |
| O=[N+]([O-])OCCCNCCCCCNc1c2c(nc3ccccc13)CCCC2 | Acetylcholinesterase (Electrophorus electricus) | 0.0154 µM |
| O=[N+]([O-])OCCCNCCCCNc1c2c(nc3ccccc13)CCCC2 | Acetylcholinesterase (Electrophorus electricus) | 0.0056 µM |
| O=[N+]([O-])OCCNCCCCCCCCNc1c2c(nc3ccccc13)CCCC2 | Acetylcholinesterase (Electrophorus electricus) | 0.0077 µM |
| O=C(CO[N+](=O)[O-])NCCCNc1c2c(nc3ccccc13)CCCC2 | Acetylcholinesterase (Electrophorus electricus) | 0.0282 µM |
| O=[N+]([O-])OCCCCCCNCCCCCCCCNc1c2c(nc3ccccc13)CCCC2 | Acetylcholinesterase (Electrophorus electricus) | 0.0196 µM |

Problem: Fill in the blank: the reported IC50 of "O=[N+]([O-])OCCCNCCCCCCCCNc1c2c(nc3ccccc13)CCCC2" is ____.
Result: 0.0171 µM

Problem: Fill in the blank: the reported IC50 of "CCCNCCCCNc1c2c(nc3ccccc13)CCCC2" is ____.
Result: 0.0234 µM

Problem: Fill in the blank: the reported IC50 of "O=[N+]([O-])OCCCNCCNc1c2c(nc3ccccc13)CCCC2" is ____.
Result: 0.013 µM

Problem: Fill in the blank: the reported IC50 of "O=[N+]([O-])OCCNCCNc1c2c(nc3ccccc13)CCCC2" is ____.
Result: 0.0091 µM

Problem: Fill in the blank: the reported IC50 of "O=[N+]([O-])OCCNCCCCCNc1c2c(nc3ccccc13)CCCC2" is ____.
Result: 0.0216 µM
